The origin of these recorded values is PubChem BioAssay (NCI).

test system: A549 NSCLC; assay: NCI tumour cell line growth inhibition, 48 h
Here the recorded TGI is given for each entry.
property_label: TGI

[
  {
    "compound": "CC(=Nc1cc(Cl)cc(Cl)c1)c1ccncc1",
    "experimental_target": "A549 NSCLC",
    "property_label": "TGI",
    "observed_result": "> 100 µM"
  },
  {
    "compound": "Cc1nc(Nc2nc3ccccc3[nH]2)nc(Cl)c1CCCl",
    "experimental_target": "A549 NSCLC",
    "property_label": "TGI",
    "observed_result": "> 100 µM"
  },
  {
    "compound": "COc1cc2cc(C(=O)N3CC(CCl)c4c3cc(NC(=O)C(C)Nc3c([N+](=O)[O-])cc(C(=O)NCCN(C)C)cc3[N+](=O)[O-])c3ccccc43)[nH]c2c(OC)c1OC (stereo unspecified)",
    "experimental_target": "A549 NSCLC",
    "property_label": "TGI",
    "observed_result": "0.362 µM"
  },
  {
    "compound": "CC(=O)NC(=O)NC1=NCCC(=O)N1CCc1c[nH]c2ccccc12",
    "experimental_target": "A549 NSCLC",
    "property_label": "TGI",
    "observed_result": "> 100 µM"
  },
  {
    "compound": "Cc1cc(=O)oc2cc(OC(=O)N(CCCl)CCCl)ccc12",
    "experimental_target": "A549 NSCLC",
    "property_label": "TGI",
    "observed_result": "> 100 µM"
  },
  {
    "compound": "COc1cc(C2c3cc4c(cc3[C@@H](N(C)C)[C@H]3COC(=O)C23)OCO4)cc(OC)c1O (stereo partly specified)",
    "experimental_target": "A549 NSCLC",
    "property_label": "TGI",
    "observed_result": "> 100 µM"
  }
]

---

test system: SN12C renal; test: NCI tumour cell line growth inhibition, 48 h; in the data active = GI50 below about 0.43 µM; inactive = the rest
Classes used: active, inactive

[
  {
    "compound": "CCC[CH2][Sn]1([CH2]CCC)[O]C(=O)c2ccc(N)cc2[O]1",
    "assigned_category": "inactive"
  },
  {
    "compound": "O=C(Nc1ccc(Br)cc1)Nc1nn(C(=O)Nc2ccc(Br)cc2)c2ccccc12",
    "assigned_category": "inactive"
  },
  {
    "compound": "CC(=O)c1cc(-c2ccccc2N)n(-c2ccc3c(c2)OCO3)c1C",
    "assigned_category": "active"
  },
  {
    "compound": "CNCCNc1nc2ccccc2c2c(=O)c3cc(OC)ccc3sc12",
    "assigned_category": "inactive"
  },
  {
    "compound": "COc1cc2c(c(OC)c1OC)-c1ccc(O)c(=O)cc1[C@@H](NC(C)=O)CC2",
    "assigned_category": "inactive"
  },
  {
    "compound": "COc1nc(C)cc2c(=O)n(-c3ccccc3)n(CC(O)CN3CCN(c4ccc(Cl)cc4)CC3)c(=O)c12 (stereo not given)",
    "assigned_category": "inactive"
  },
  {
    "compound": "CC[C@]1(O)C[C@@H]2CN(CCc3c([nH]c4ccccc34)[C@@](C(=O)OC)(c3cc4c(cc3OC)N(C)[C@H]3[C@@](O)(C(N)=O)[C@H](O)[C@]5(CC)[C@@H]6C[C@@H]6CN6CC[C@]43[C@@H]65)C2)C1",
    "assigned_category": "active"
  },
  {
    "compound": "CCCCNC(=O)Oc1ccc(/C(=C(/CC)Cc2ccccc2)c2ccc(OCCN3CCCCCC3)cc2)cc1",
    "assigned_category": "inactive"
  },
  {
    "compound": "N=c1ccc2nc3c(cc(N)c4ccccc43)oc-2c1",
    "assigned_category": "active"
  },
  {
    "compound": "CC(C)(C)n1cc(-c2ccnc(NCCCNS(=O)(=O)c3ccc(Br)cc3)c2)c(-c2cccc(O)c2)n1",
    "assigned_category": "inactive"
  }
]
